# assay: activity coefficient (dimensionless); of the first substance listed, at infinite dilution; xn = mol fraction of the nth substance listed
# runConditions: 303.15 K; 100 kPa; Liquid; Chemical equilibration / Heterogeneous equilibration; x1 = 0
readoutName: activity coefficient
Answer as a number with no unit attached.

Recorded results for 5 molecules are shown here.
| molecule | activity coefficient |
| --- | --- |
| O [water] + Cc1ccccc1 | 300 |
| O [water] + CCOc1ccccc1 | 97 |
| O [water] + Brc1ccccc1 | 311 |
| O [water] + COc1ccccc1 | 84.4 |
| O [water] + FC(F)(F)c1ccccc1 | 302 |

What value of activity coefficient has been reported for the following molecule? O [water] + Clc1ccccc1
318

Same thing, different molecule: O [water] + COc1ccc(Br)cc1
106
